target-or-system: T1, monovalent hVISTA-ECD (human VISTA extracellular domain with His tail) (human, UniProt Q9H7M9 33-193)
T1 construct: analyte flowed over captured antibody; also called huVISTA-His
T1 sequence (Q9H7M9 other isoform, or with tags, fused parts or gaps limits assumed): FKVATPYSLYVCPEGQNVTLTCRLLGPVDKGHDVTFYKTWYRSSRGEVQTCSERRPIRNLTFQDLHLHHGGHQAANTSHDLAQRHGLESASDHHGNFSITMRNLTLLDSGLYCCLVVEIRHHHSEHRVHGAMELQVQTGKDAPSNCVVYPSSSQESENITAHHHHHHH
experiment-summary: SPR, pH 6.0
metric-name: kd improvement vs parent (fold)

[[record]]
binder = "P1-064391 (41F11_HC_Mutant: D31E/Y50W/S55E/Y100E 41F11_LC_Mutant: V29D/A64G/R91T) (antibody, V domains shown, Kabat positions; also called P1-064391-1) VH: QVQLVESGGGLVKPGGSLRLSCAASGFTFSEYYMSWIRQAPGKGLEWVSWISNSGEPIYYADSVKGRFTISRDNAKNSLYLQMNSLRAEDTAVYYCARDLPGWEFDLWGRGTLVTVSS VL: EIVLTQSPATLSLSPGERATLSCRASQSDSSYLAWYQQKPGQAPRLLIYDASNRATGIPARFSGSGSGTDFTLTISSLEPEDFAVYYCQQTNNWPRTFGQGTKVEIK"
metric_name = "kd improvement vs parent"
units_of_measure = "fold"
recorded_measurement = 3.3

[[record]]
binder = "P1-063153 (41F11_HC_mutant: D31E/Y50W/S55E/Y100E) (antibody, V domains shown, Kabat positions; also called P1-063153-5) VH: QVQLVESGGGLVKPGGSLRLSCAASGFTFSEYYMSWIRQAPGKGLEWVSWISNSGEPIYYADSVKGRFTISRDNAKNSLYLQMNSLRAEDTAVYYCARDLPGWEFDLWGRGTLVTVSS VL: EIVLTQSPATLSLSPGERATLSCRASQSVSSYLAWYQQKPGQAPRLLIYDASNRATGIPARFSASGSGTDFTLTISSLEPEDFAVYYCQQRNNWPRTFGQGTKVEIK"
metric_name = "kd improvement vs parent"
units_of_measure = "fold"
recorded_measurement = 233

[[record]]
binder = "P1-065326 (41F11_VH_D31E/Y50W/S55E/L96E/Y100E VK_A64G) (antibody, V domains shown, Kabat positions; also called P1-065326-1) VH: QVQLVESGGGLVKPGGSLRLSCAASGFTFSEYYMSWIRQAPGKGLEWVSWISNSGEPIYYADSVKGRFTISRDNAKNSLYLQMNSLRAEDTAVYYCARDEPGWEFDLWGRGTLVTVSS VL: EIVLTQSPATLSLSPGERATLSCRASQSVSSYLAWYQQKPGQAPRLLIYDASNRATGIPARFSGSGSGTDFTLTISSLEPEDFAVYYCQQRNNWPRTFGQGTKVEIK"
metric_name = "kd improvement vs parent"
units_of_measure = "fold"
recorded_measurement = 294

[[record]]
binder = "P1-064392 (41F11_HC_Mutant: D31E/Y50W/S55E/Y100E 41F11_LC_Mutant: V29D/A64G/Q89E/R91T) (antibody, V domains shown, Kabat positions; also called P1-064392-1) VH: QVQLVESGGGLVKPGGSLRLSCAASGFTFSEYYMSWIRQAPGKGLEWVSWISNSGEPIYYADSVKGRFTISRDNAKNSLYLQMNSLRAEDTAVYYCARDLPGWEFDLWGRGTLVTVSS VL: EIVLTQSPATLSLSPGERATLSCRASQSDSSYLAWYQQKPGQAPRLLIYDASNRATGIPARFSGSGSGTDFTLTISSLEPEDFAVYYCEQTNNWPRTFGQGTKVEIK"
metric_name = "kd improvement vs parent"
units_of_measure = "fold"
recorded_measurement = 12.4

[[record]]
binder = "P1-064510 (41F11_Vk_A25E/V29D/A64G/R91T) (antibody, V domains shown, also called P1-064510-1) VH: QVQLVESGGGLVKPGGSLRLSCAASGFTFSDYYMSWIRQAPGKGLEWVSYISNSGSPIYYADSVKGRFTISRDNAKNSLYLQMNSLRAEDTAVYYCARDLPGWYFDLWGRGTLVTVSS VL: EIVLTQSPATLSLSPGERATLSCRESQSDSSYLAWYQQKPGQAPRLLIYDASNRATGIPARFSGSGSGTDFTLTISSLEPEDFAVYYCQQTNNWPRTFGQGTKVEIK"
metric_name = "kd improvement vs parent"
units_of_measure = "fold"
recorded_measurement = 35

